So I've got a bunch of compounds here, and I need their Ke values.
- measurement target: Substance-P receptor (Cavia porcellus) (UniProt P30547)
- Sequence (P30547 whole entry): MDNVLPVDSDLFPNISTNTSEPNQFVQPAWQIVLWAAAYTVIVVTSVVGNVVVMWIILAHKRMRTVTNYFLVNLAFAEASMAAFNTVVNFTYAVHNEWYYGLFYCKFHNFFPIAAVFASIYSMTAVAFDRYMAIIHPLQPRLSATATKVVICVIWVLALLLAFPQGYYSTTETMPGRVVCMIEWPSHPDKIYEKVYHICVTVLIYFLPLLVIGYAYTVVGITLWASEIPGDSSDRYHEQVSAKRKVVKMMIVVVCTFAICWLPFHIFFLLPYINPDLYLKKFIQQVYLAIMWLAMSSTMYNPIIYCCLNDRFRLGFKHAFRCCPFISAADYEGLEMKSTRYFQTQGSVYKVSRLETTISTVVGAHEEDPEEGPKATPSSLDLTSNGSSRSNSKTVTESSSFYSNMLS
- protocol summary: Antagonist activity at NK1 receptor in guinea pig ileum assessed as inhibition of substance P-induced muscle contraction
- Format: functional, tissue-based
One number for each entry, in nM.

CSCC[C@H](NC(=O)[C@H](Cc1ccccc1)NC(=O)CNC(=O)[C@@H](C)NC(=O)[C@@H](N)Cc1c(C)cc(O)cc1C)C(=O)N1CCC[C@H]1C(=O)N[C@@H](CC(C)C)C(=O)N[C@@H](Cc1c[nH]c2ccccc12)C(=O)NCc1cc(C(F)(F)F)cc(C(F)(F)F)c1: 7.5

State, in one line, measured Ke of `CCCC[C@H](NC(=O)[C@H](Cc1ccccc1)NC(=O)CNC(=O)[C@@H](C)NC(=O)[C@@H](N)Cc1c(C)cc(O)cc1C)C(=O)N1CCC[C@H]1C(=O)N[C@@H](CC(C)C)C(=O)N[C@@H](Cc1c[nH]c2ccccc12)C(=O)N(C)Cc1cc(C(F)(F)F)cc(C(F)(F)F)c1`
6.1
